Target: Human MDM4 (HDM4) 1-114 (Homo sapiens, UniProt O15151)
Sequence (O15151 1-114): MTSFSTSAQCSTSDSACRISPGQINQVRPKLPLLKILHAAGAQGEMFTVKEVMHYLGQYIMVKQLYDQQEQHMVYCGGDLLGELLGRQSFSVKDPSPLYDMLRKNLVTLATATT
Where a SMILES comes first, the peptide text is derived from it. [ ]: non-standard residue; d: D form. ξ: configuration not given here. Ala(thiazol-5-yl) = N[C@@H](Cc1cncs1)C(=O)O; Ala(4-thiazolyl) = N[C@@H](Cc1cscn1)C(=O)O; Phe(4-Cl) = N[C@@H](Cc1ccc(Cl)cc1)C(=O)O; Phe(4-F) = N[C@@H](Cc1ccc(F)cc1)C(=O)O; NMeF = CN[C@@H](Cc1ccccc1)C(=O)O; Cba = N[C@@H](CC1CCC1)C(=O)O; NMeNva = CCC[C@H](NC)C(=O)O; NMeV = CN[C@H](C(=O)O)C(C)C; hSer = N[C@@H](CCO)C(=O)O; NMeA = CN[C@@H](C)C(=O)O; dNMeA = CN[C@H](C)C(=O)O; ξNMeV = CNC(C(=O)O)C(C)C; NBuGly = CCCCNCC(=O)O; Nme = COCCNCC(=O)O; Sar = CNCC(=O)O
Measurement kind: IC50

So what's the measured IC50 for this one? COCC[C@@H]1NC(=O)[C@H]2CCCN2C(=O)[C@H](Cc2ccccc2)N(C)C(=O)[C@H](Cc2ccc(Cl)cc2)NC(=O)[C@H](CC2CCC2)NC(=O)[C@H](Cc2ccc(F)cc2)NC(=O)CN(CCOC)C(=O)[C@@H](C)N(C)C(=O)[C@H](C)N(C)C1=O [compound 14] (cyclo([Cba][Phe(4-Cl)][NMeF][dP][hSer](Me)[NMeA][dNMeA][Nme][Phe(4-F)]))
25 to 50 nM

Item COCC[C@@H]1NC(=O)[C@H]2CCCN2C(=O)[C@H](Cc2ccccc2)N(C)C(=O)[C@H](Cc2ccc(Cl)cc2)NC(=O)[C@H]([C@@H](C)O)NC(=O)[C@H](Cc2ccc(F)cc2)NC(=O)CN(CCOC)C(=O)[C@@H](C)N(C)C(=O)[C@H](Cc2cscn2)NC(=O)[C@H](C)N(C)C1=O [compound 18] (cyclo([hSer](Me)[NMeA][Ala(4-thiazolyl)][dNMeA][Nme][Phe(4-F)]T[Phe(4-Cl)][NMeF][dP])) has what recorded IC50?
25 to 50 nM

Please give the measured IC50 for this molecule: CCCCN1CC(=O)N[C@@H](Cc2ccc(F)cc2)C(=O)N(C)C(C(C)C)C(=O)N[C@@H](Cc2ccc(Cl)cc2)C(=O)N(C)[C@@H](Cc2ccccc2)C(=O)N2CCC[C@@H]2C(=O)N[C@@H](CCOC)C(=O)N(C)[C@@H](C)C(=O)N[C@@H](Cc2cncs2)C(=O)N(C)[C@H](C)C1=O (some centres unmarked) [compound 24] (cyclo([NMeA][Ala(thiazol-5-yl)][dNMeA][NBuGly][Phe(4-F)][ξNMeV][Phe(4-Cl)][NMeF][dP][hSer](Me)))
≥ 100 nM

I am curious: what IC50 value has been reported for CCC[C@H]1C(=O)N[C@@H](Cc2ccc(F)cc2)C(=O)N(C)[C@@H](C(C)C)C(=O)N[C@@H](Cc2ccc(Cl)cc2)C(=O)N(C)[C@@H](Cc2ccccc2)C(=O)N2CCC[C@@H]2C(=O)N[C@@H](CCOC)C(=O)N(C)[C@@H](C)C(=O)N[C@@H](Cc2cncs2)C(=O)N(C)[C@H](C)C(=O)N1C [compound 28] (cyclo([NMeA][Ala(thiazol-5-yl)][dNMeA][NMeNva][Phe(4-F)][NMeV][Phe(4-Cl)][NMeF][dP][hSer](Me))) ?
≥ 100 nM

Suppose we examine the molecule COCC[C@@H]1NC(=O)[C@H]2CCCN2C(=O)[C@H](Cc2ccccc2)N(C)C(=O)[C@H](Cc2ccc(Cl)cc2)NC(=O)[C@H](C(C)C)N(C)C(=O)[C@H](Cc2ccc(F)cc2)NC(=O)CN(C)C(=O)[C@@H](C)N(C)C(=O)[C@H](Cc2cncs2)NC(=O)[C@H](C)N(C)C1=O [compound 27] (cyclo([NMeA][Ala(thiazol-5-yl)][dNMeA][Sar][Phe(4-F)][NMeV][Phe(4-Cl)][NMeF][dP][hSer](Me))) ; what IC50 value has been reported?
≥ 100 nM

---

pIC50: −log10 of the molar value. *1 amine or outer side, *2 acyl side, *3 side chain or, on linkers, in order; H or OH if unused. Where a SMILES comes first, the peptide text is derived from it. [ ]: non-standard residue; d: D form. The star is where a group is joined. ξ: configuration not given here. Ala(thiazol-5-yl) = N[C@@H](Cc1cncs1)C(=O)O; Ala(4-thiazolyl) = N[C@@H](Cc1cscn1)C(=O)O; NMePhe(4-F) = CN[C@@H](Cc1ccc(F)cc1)C(=O)O; Phe(4-Cl) = N[C@@H](Cc1ccc(Cl)cc1)C(=O)O; Phe(4-F) = N[C@@H](Cc1ccc(F)cc1)C(=O)O; X2 = CC1(C)CN([*:1])[C@@H]1C(=O)[*:2]; Cyclohexanecarbonyl = O=C(C1CCCCC1)*; NMeF = CN[C@@H](Cc1ccccc1)C(=O)O; NMeV = CN[C@H](C(=O)O)C(C)C; hSer = N[C@@H](CCO)C(=O)O; NMeA = CN[C@@H](C)C(=O)O; dNMeA = CN[C@H](C)C(=O)O; ξNMeV = CNC(C(=O)O)C(C)C; Aze = O=C(O)[C@@H]1CCN1; NBuGly = CCCCNCC(=O)O; Bz = O=C(c1ccccc1)*; Nme = COCCNCC(=O)O
Give pIC50 for every item shown.

Observed pIC50 on Human MDM2 (HDM2) 1-116 (Homo sapiens, UniProt Q00987) for COCC[C@@H]1NC(=O)[C@H]2CCCN2C(=O)[C@H](Cc2ccc(F)cc2)N(C)C(=O)[C@H](Cc2ccc(Cl)cc2)NC(=O)[C@@H]2CCN2C(=O)[C@H](Cc2ccc(F)cc2)NC(=O)CN(CCOC)C(=O)[C@@H](C)N(C)C(=O)[C@H](Cc2cscn2)NC(=O)[C@H](C(C)C)N(C)C1=O [compound 22] (cyclo([Ala(4-thiazolyl)][dNMeA][Nme][Phe(4-F)][Aze][Phe(4-Cl)][NMePhe(4-F)][dP][hSer](Me)[NMeV])) , please.
Sequence (Q00987 1-116): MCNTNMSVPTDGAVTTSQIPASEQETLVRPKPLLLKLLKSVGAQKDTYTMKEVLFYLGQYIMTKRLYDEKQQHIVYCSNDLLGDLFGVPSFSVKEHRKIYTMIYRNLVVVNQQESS
7.30 to 7.60

Request - read-out pIC50 | tested on Human MDM2 (HDM2) 1-116 (Homo sapiens, UniProt Q00987) | compound COCC[C@@H]1NC(=O)[C@H]2CCCN2C(=O)[C@H](Cc2ccccc2)N(C)C(=O)[C@H](Cc2ccc(Cl)cc2)NC(=O)[C@H]([C@@H](C)OC(=O)c2ccccc2)NC(=O)[C@H](Cc2ccc(F)cc2)NC(=O)CN(CCOC)C(=O)[C@@H](C)N(C)C(=O)[C@H](Cc2cscn2)NC(=O)[C@H](C)N(C)C1=O [compound 2] (cyclo([Ala(4-thiazolyl)][dNMeA][Nme][Phe(4-F)]T(Bz)[Phe(4-Cl)][NMeF][dP][hSer](Me)[NMeA]))
> 7.60

Query for Human MDM2 (HDM2) 1-116 (Homo sapiens, UniProt Q00987): what pIC50 does the record show for COCC[C@@H]1NC(=O)[C@H]2CCCN2C(=O)[C@H](Cc2ccccc2)N(C)C(=O)[C@H](Cc2ccc(Cl)cc2)NC(=O)[C@H]([C@@H](C)OC(=O)C2CCCCC2)NC(=O)[C@H](Cc2ccc(F)cc2)NC(=O)CN(CCOC)C(=O)[C@@H](C)N(C)C(=O)[C@H](Cc2cscn2)NC(=O)[C@H](C)N(C)C1=O [compound 8] (cyclo([Ala(4-thiazolyl)][dNMeA][Nme][Phe(4-F)]T(Cyclohexanecarbonyl)[Phe(4-Cl)][NMeF][dP][hSer](Me)[NMeA])) ?
≤ 7.00

Which measured pIC50 belongs to COCC[C@@H]1NC(=O)[C@H]2CCCN2C(=O)[C@H](Cc2ccc(F)cc2)N(C)C(=O)[C@H](Cc2ccc(Cl)cc2)NC(=O)[C@H]2N(CC2(C)C)C(=O)[C@H](Cc2ccc(F)cc2)NC(=O)CN(CCOC)C(=O)[C@@H](C)N(C)C(=O)[C@H](Cc2cscn2)NC(=O)[C@H](C)N(C)C1=O [compound 11] (cyclo([Ala(4-thiazolyl)][dNMeA][Nme][Phe(4-F)][X2][Phe(4-Cl)][NMePhe(4-F)][dP][hSer](Me)[NMeA])) , tested on Human MDM2 (HDM2) 1-116 (Homo sapiens, UniProt Q00987)?
> 7.60

Could you share what pIC50 was measured for CCCCN1CC(=O)N[C@@H](Cc2ccc(F)cc2)C(=O)N(C)C(C(C)C)C(=O)N[C@@H](Cc2ccc(Cl)cc2)C(=O)N(C)[C@@H](Cc2ccccc2)C(=O)N2CCC[C@@H]2C(=O)N[C@@H](CCOC)C(=O)N(C)[C@@H](C)C(=O)N[C@@H](Cc2cncs2)C(=O)N(C)[C@H](C)C1=O (some centres unmarked) [compound 24] (cyclo([NMeA][Ala(thiazol-5-yl)][dNMeA][NBuGly][Phe(4-F)][ξNMeV][Phe(4-Cl)][NMeF][dP][hSer](Me))) , tested on Human MDM2 (HDM2) 1-116 (Homo sapiens, UniProt Q00987)?
7.30 to 7.60
